tested on: C. albicans; type: cell-based
Where a SMILES comes first, the peptide text is derived from it. [ ]: non-standard residue; d: D form. The star is where a group is joined. Octanoyl = CCCCCCCC(=O)*; Orn = NCCC[C@H](N)C(=O)O
quantity_kind: Minimal Inhibitory Concentration CA (µg/mL)
Respond numerically; units are µg/mL and should not be typed.

# example entries with known answers
{"columns": ["compound", "Minimal Inhibitory Concentration CA (µg/mL)"],
 "data": [
  ["CCCCCCCC(=O)N[C@@H](CC(C)C)C(=O)N[C@@H](CCCN)C(=O)N[C@@H](CCCN)C(=O)N[C@@H](CC(C)C)C(=O)N[C@@H](CC(C)C)C(=O)N[C@@H](CCCN)C(=O)N[C@@H](CCCN)C(=O)N[C@@H](CC(C)C)C(=O)N[C@@H](CCCN)C(=O)N[C@@H](CCCN)C(=O)N[C@@H](CC(C)C)C(N)=O [Oct-(SEQ ID NO: 142)-NH2] (Octanoyl-L[Orn][Orn]LL[Orn][Orn]L[Orn][Orn]L-NH2)", 32],
  ["CCCCCCCC(=O)NCC(=O)N[C@H](C(=O)N[C@@H](CCCCN)C(=O)N[C@@H](CCCCN)C(=O)N[C@@H](Cc1ccccc1)C(=O)N[C@@H](CC(C)C)C(=O)N[C@@H](CCCCN)C(=O)N[C@@H](CCCCN)C(=O)N[C@@H](C)C(=O)NCC(=O)N[C@@H](CCCCN)C(=O)N[C@@H](Cc1ccccc1)C(=O)NCC(=O)N[C@@H](CCCCN)C(=O)N[C@@H](C)C(=O)N[C@@H](Cc1ccccc1)C(N)=O)[C@@H](C)CC [Oct-(SEQ ID NO: 149)-NH2] (Octanoyl-GIKKFLKKAGKFGKAF-NH2)", 126]
]}

Now look at this one.
Suppose we examine the compound CCCCCCCC(=O)N[C@@H](CC(C)C)C(=O)N[C@@H](CCCCN)C(=O)N[C@@H](CCCCN)C(=O)N[C@@H](CC(C)C)C(=O)N[C@@H](CC(C)C)C(=O)N[C@@H](CCCCN)C(=O)N[C@@H](CCCCN)C(N)=O [Oct-(SEQ ID NO: 137)-NH2] (Octanoyl-LKKLLKK-NH2) ; what Minimal Inhibitory Concentration CA value has been reported?
256

---

test system: C. albicans; type: cell-based
Where a SMILES comes first, the peptide text is derived from it. The star is where a group is joined. Octanoyl = CCCCCCCC(=O)*
quantity_kind: Minimal Inhibitory Concentration CA (µg/mL)
Respond numerically; units are µg/mL and should not be typed.

{"columns": ["compound", "Minimal Inhibitory Concentration CA [µg/mL]"],
 "data": [
  ["CCCCCCCC(=O)N[C@@H](CCCNC(=N)N)C(=O)N[C@@H](Cc1ccccc1)C(=O)N[C@@H](C)C(=O)N[C@@H](CCCNC(=N)N)C(=O)N[C@@H](CCCNC(=N)N)C(=O)N[C@@H](Cc1ccccc1)C(=O)N[C@@H](C)C(N)=O [Oct-(SEQ ID NO: 120)-NH2] (Octanoyl-RFARRFA-NH2)", 64]
]}

Now look at this one.
Suppose we examine the compound CCCCCCCC(=O)N[C@@H](CC(C)C)C(=O)N[C@@H](CCCCN)C(=O)N[C@@H](CCCCN)C(=O)N[C@@H](CC(C)C)C(=O)N[C@@H](CC(C)C)C(=O)N[C@@H](CCC(=O)O)C(=O)N[C@@H](CCCCN)C(=O)N[C@@H](CC(C)C)C(=O)N[C@@H](CCCCN)C(=O)N[C@@H](CCCCN)C(=O)N[C@@H](CC(C)C)C(N)=O [Oct-(SEQ ID NO: 130)-NH2] (Octanoyl-LKKLLEKLKKL-NH2) ; what Minimal Inhibitory Concentration CA value has been reported?
8
